# system: PRMT4 (Homo sapiens)
# Sequence (Q86X55 whole entry, species assumed): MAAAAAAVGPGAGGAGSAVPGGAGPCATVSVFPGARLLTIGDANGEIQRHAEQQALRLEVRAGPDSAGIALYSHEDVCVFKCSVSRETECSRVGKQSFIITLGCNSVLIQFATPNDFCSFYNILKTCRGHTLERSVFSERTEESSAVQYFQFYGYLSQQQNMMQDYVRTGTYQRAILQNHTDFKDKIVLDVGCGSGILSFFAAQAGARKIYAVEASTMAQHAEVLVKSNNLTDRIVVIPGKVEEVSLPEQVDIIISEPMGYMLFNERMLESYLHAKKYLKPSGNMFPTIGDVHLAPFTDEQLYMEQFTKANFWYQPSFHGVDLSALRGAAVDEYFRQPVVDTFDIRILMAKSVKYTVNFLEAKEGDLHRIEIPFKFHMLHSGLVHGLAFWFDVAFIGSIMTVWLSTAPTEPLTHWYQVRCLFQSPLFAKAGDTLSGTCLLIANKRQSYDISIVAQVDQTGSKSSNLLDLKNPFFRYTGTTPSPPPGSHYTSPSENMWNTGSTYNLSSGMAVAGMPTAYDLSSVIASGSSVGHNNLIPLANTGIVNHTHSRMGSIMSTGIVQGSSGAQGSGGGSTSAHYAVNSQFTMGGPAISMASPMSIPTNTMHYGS
# assay comment: radioactive assay (Reaction Biology Corp.), inhibition of PRMT4
# Format: biochemical
# Procedure: Next, the inhibition activity of the library was investigated for five PRMT members from type I PRMTs. The PRMT 4, 6 and 8 methylation assays were performed by Reaction Biology corp.
assay readout: inhibition at 10 µM (%)

compound: N=C(NCCCSC[C@H]1O[C@@H](n2cnc3c(N)ncnc32)[C@H](O)[C@@H]1O)Nc1cccc(Br)c1 [Compound 5f]
measurement unit: %
val: 100

compound: Nc1ncnc2c1ncn2[C@@H]1O[C@H](CSCCCNC(=O)NCc2ccccc2)[C@@H](O)[C@H]1O [Compound 7p]
measurement unit: %
val: 76

compound: N=C(NCCSC[C@H]1O[C@@H](n2cnc3c(N)ncnc32)[C@H](O)[C@@H]1O)NCc1ccccc1 [Compound 5a]
measurement unit: %
val: 99

compound: Nc1ncnc2c1ncn2[C@@H]1O[C@H](CSCCCNCc2cccc(-c3ccc(Cl)cc3)c2)[C@@H](O)[C@H]1O [Compound 10m]
measurement unit: %
val: 99

compound: Nc1ncnc2c1ncn2[C@@H]1O[C@H](CSCCNC(=O)NCc2ccccc2Br)[C@@H](O)[C@H]1O [Compound 7h]
measurement unit: %
val: 96

compound: Nc1ncnc2c1ncn2[C@@H]1O[C@H](CSCCNCc2cccc(-c3cccc(F)c3)c2)[C@@H](O)[C@H]1O [Compound 10c]
measurement unit: %
val: 100

compound: Nc1ncnc2c1ncn2[C@@H]1O[C@H](CSCCNC(=O)Nc2cccc3ccccc23)[C@@H](O)[C@H]1O [Compound 7l]
measurement unit: %
val: 88

compound: Nc1ncnc2c1ncn2[C@@H]1O[C@H](CSCCNCc2cccc(-c3ccncc3)c2)[C@@H](O)[C@H]1O [Compound 10k]
measurement unit: %
val: 99

====

# system: UniProtKB Q9NR22
# Sequence (Q9NR22 whole entry, species assumed): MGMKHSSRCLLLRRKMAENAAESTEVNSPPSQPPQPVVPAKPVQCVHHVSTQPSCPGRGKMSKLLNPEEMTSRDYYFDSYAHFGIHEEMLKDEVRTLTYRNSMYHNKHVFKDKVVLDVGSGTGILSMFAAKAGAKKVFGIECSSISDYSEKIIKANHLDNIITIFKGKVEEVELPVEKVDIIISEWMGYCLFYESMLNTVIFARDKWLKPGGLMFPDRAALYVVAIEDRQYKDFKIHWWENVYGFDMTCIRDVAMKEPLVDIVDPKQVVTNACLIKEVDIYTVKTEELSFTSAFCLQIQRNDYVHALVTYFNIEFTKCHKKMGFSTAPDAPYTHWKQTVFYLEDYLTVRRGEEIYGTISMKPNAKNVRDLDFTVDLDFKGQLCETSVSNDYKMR
# assay comment: radioactive assay (Reaction Biology Corp.), inhibition of PRMT8
# Format: biochemical
assay readout: inhibition at 10 µM (%)

Some solved cases for reference:
compound: N=C(NCCCSC[C@H]1O[C@@H](n2cnc3c(N)ncnc32)[C@H](O)[C@@H]1O)Nc1cccc(-c2ccc(F)nc2)c1 [Compound 6n]
system: UniProtKB Q9NR22
inhibition at 10 µM (%): 100
--
compound: Nc1ncnc2c1ncn2[C@@H]1O[C@H](CSCCCNCc2cccc(-c3ccc(O)cc3)c2)[C@@H](O)[C@H]1O [Compound 10n]
system: UniProtKB Q9NR22
inhibition at 10 µM (%): 69
--
compound: N=C(NCCCSC[C@H]1O[C@@H](n2cnc3c(N)ncnc32)[C@H](O)[C@@H]1O)Nc1cccc(-c2ccc3c(c2)OCCO3)c1 [Compound 6g]
system: UniProtKB Q9NR22
inhibition at 10 µM (%): 99

1: N=C(NCCCSC[C@H]1O[C@@H](n2cnc3c(N)ncnc32)[C@H](O)[C@@H]1O)Nc1cccc(-c2ccc(O)cc2)c1 [Compound 6e]
2: Nc1ncnc2c1ncn2[C@@H]1O[C@H](CSCCCNCc2cccc(-c3ccc(C(F)(F)F)cc3)c2)[C@@H](O)[C@H]1O [Compound 10o]
Exercise: Sort 1 and 2 by inhibition at 10 µM descending and give the first. Answer by quoting the chosen item's label.
Solution: 1

====

# system: UniProt Q96LA8
# Sequence (Q96LA8 whole entry, species assumed): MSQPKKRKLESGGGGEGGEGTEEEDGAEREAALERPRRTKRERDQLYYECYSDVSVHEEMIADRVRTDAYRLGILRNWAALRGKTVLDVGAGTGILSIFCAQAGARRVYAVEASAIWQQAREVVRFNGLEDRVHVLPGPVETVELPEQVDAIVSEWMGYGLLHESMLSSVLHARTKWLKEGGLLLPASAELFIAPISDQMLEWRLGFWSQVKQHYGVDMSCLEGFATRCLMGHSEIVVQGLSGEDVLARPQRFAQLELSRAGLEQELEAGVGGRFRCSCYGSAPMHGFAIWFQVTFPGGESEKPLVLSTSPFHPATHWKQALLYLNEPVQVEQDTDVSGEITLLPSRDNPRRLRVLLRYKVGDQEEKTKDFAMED
# assay comment: radioactive assay (Reaction Biology Corp.), inhibition of PRMT6
# Type: biochemical
assay readout: inhibition at 10 µM (%)

Observe how each entry below is paired with its result.
molecule: N=C(NCCCSC[C@H]1O[C@@H](n2cnc3c(NCCCc4ccccc4)ncnc32)[C@H](O)[C@@H]1O)NC1CCCCC1 [Compound 19e]
measurement unit: %
val: 88

molecule: Nc1ncnc2c1ncn2[C@@H]1O[C@H](CSCCNC(=O)NCc2ccc(-c3ccc(O)cc3)cc2)[C@@H](O)[C@H]1O
measurement unit: %
val: 82

1: N=C(NCCSC[C@H]1O[C@@H](n2cnc3c(N)ncnc32)[C@H](O)[C@@H]1O)Nc1cccc(-c2ccc(C(F)(F)F)cc2)c1
2: Nc1ncnc2c1ncn2[C@@H]1O[C@H](CSCCOc2ccc(-c3ccc(F)c(O)c3)cc2)[C@@H](O)[C@H]1O [Compound 14d]
Exercise: Would you mind telling me which has the lower recorded inhibition at 10 µM between 1 and 2 ? # respond with the chosen item's label
Solution: 2
(2: 18%, 1: 91%)

====

# system: PRMT1 (Homo sapiens)
# Construct: made in house
# assay comment: SAHH-coupled fluorescence assay, inhibition of PRMT1
# Format: biochemical
# run conditions: read-out: IC50[μM] | PRMT1
assay readout: IC50 (µM)

Example entries and their recorded answers appear below.
chemical string: N=C(NCCSC[C@H]1O[C@@H](n2cnc3c(N)ncnc32)[C@H](O)[C@@H]1O)Nc1cccc(-c2ccc(C(F)(F)F)cc2)c1
assay readout: IC50
val: 1.8

chemical string: N=C(NCCSC[C@H]1O[C@@H](n2cnc3c(N)ncnc32)[C@H](O)[C@@H]1O)Nc1cccc(I)c1
assay readout: IC50
val: 0.13

chemical string: N=C(NCCCSC[C@H]1O[C@@H](n2cnc3c(N)ncnc32)[C@H](O)[C@@H]1O)NCc1ccccc1
assay readout: IC50
val: 0.21

A: N=C(NCCCSC[C@H]1O[C@@H](n2cnc3c(N)ncnc32)[C@H](O)[C@@H]1O)Nc1cccc(-c2ccc(F)c(O)c2)c1
B: N=C(NCCCSC[C@H]1O[C@@H](n2cnc3c(N)ncnc32)[C@H](O)[C@@H]1O)Nc1cccc(-c2cncnc2)c1
Exercise: Response body: label of entry with the larger IC50; valid values A , B . Use the label to indicate which entry you chose.
Solution: B
(B: 0.45 µM, A: 0.17 µM)

I: N=C(NCCCSC[C@H]1O[C@@H](n2cnc3c(N)ncnc32)[C@H](O)[C@@H]1O)Nc1cccc(-c2cccc(F)c2)c1
II: N=C(NCCCSC[C@H]1O[C@@H](n2cnc3c(N)ncnc32)[C@H](O)[C@@H]1O)Nc1ccccc1
III: N=C(NCCSC[C@H]1O[C@@H](n2cnc3c(N)ncnc32)[C@H](O)[C@@H]1O)NCc1ccccc1
Exercise: Place the items in sequence of falling IC50. Please, when replying, give the labels in the order that was requested.
Solution: III, I, II
(III: 1 µM, I: 0.26 µM, II: 0.17 µM)

====

# system: PRMT1 (Homo sapiens, UniProt Q99873)
# Construct: made in house
# Sequence (Q99873 whole entry, species assumed): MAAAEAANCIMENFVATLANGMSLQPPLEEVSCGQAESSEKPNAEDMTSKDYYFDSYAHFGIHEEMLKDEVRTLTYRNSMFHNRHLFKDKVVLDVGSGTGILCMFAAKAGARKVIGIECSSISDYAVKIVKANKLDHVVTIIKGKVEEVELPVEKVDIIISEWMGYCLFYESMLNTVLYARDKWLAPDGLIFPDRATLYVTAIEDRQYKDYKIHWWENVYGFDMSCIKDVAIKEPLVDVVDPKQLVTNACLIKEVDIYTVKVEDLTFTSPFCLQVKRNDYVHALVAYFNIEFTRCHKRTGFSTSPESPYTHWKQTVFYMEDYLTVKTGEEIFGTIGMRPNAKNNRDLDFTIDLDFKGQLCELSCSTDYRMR
# assay comment: SAHH-coupled fluorescence assay, inhibition of PRMT1
# Type: biochemical
assay readout: inhibition at 10 µM (%)

compound: N=C(NCCCSC[C@H]1O[C@@H](n2cnc3c(NCCCc4ccccc4)ncnc32)[C@H](O)[C@@H]1O)NCCCc1ccccc1 [Compound 19m]
inhibition at 10 µM, %: 87

compound: Nc1ncnc2c1ncn2[C@@H]1O[C@H](CSCCCNCc2cccc(-c3ccc(F)c(O)c3)c2)[C@@H](O)[C@H]1O [Compound 10r]
inhibition at 10 µM, %: 52

compound: N=C(NCCCSC[C@H]1O[C@@H](n2cnc3c(N)ncnc32)[C@H](O)[C@@H]1O)Nc1cccc(-c2cncnc2)c1
inhibition at 10 µM, %: 102

compound: COc1cc2nc(-c3ccc(N)cc3)nc(NCCSC[C@H]3O[C@@H](n4cnc5c(N)ncnc54)[C@H](O)[C@@H]3O)c2cc1OC [Compound 12j]
inhibition at 10 µM, %: 12

1: Nc1ncnc2c1ncn2[C@@H]1O[C@H](CSCCNC(=O)NCc2ccc(-c3ccccc3O)cc2)[C@@H](O)[C@H]1O
2: N=C(NCCCN)NCCCSC[C@H]1O[C@@H](n2cnc3c(NCCCc4ccccc4)ncnc32)[C@H](O)[C@@H]1O [Compound 19i]
Exercise: Between the two listed entries 1 and 2 , which has its inhibition at 10 µM at the higher number? // output: label of the selected item
Solution: 2
(2: 89%, 1: 11%)

====

# system: UniProtKB Q9NR22
# assay comment: radioactive assay (Reaction Biology Corp.), inhibition of PRMT8
# Type: biochemical
assay readout: inhibition at 10 µM (%)

compound: Nc1ncnc2c1ncn2[C@@H]1O[C@H](CSCCNCc2cccc(-c3cccc(F)c3)c2)[C@@H](O)[C@H]1O [Compound 10c]
system: UniProtKB Q9NR22
measurement unit: %
inhibition at 10 µM: 68
--
compound: N=C(NCCCSC[C@H]1O[C@@H](n2cnc3c(NCCCc4ccccc4)ncnc32)[C@H](O)[C@@H]1O)NC1CC1 [Compound 19b]
system: UniProtKB Q9NR22
measurement unit: %
inhibition at 10 µM: 69
--
compound: Nc1ncnc2c1ncn2[C@@H]1O[C@H](CSCCNCc2cccc(-c3ccc(F)c(O)c3)c2)[C@@H](O)[C@H]1O [Compound 10f]
system: UniProtKB Q9NR22
measurement unit: %
inhibition at 10 µM: 80
--
compound: N=C(NCCCSC[C@H]1O[C@@H](n2cnc3c(N)ncnc32)[C@H](O)[C@@H]1O)Nc1cccc(-c2n[nH]cc2C(F)(F)F)c1 [Compound 6q]
system: UniProtKB Q9NR22
measurement unit: %
inhibition at 10 µM: 100
--
compound: N=C(NCCCSC[C@H]1O[C@@H](n2cnc3c(N)ncnc32)[C@H](O)[C@@H]1O)Nc1cccc(-c2cncnc2)c1 [Compound 6o]
system: UniProtKB Q9NR22
measurement unit: %
inhibition at 10 µM: 95
